assay: UVB protection, initial MTT assay (material applied after UVB)
applied-conditions: human, cultured dermal fibroblasts
readout-type: viability at 48 h, 20 µM (%)
A number alone suffices; assume %.

Query: Fill blank: measured viability at 48 h, 20 µM of the compound Cc1c(C)c2c(c(C)c1O)CCC(C)(C(=O)O)O2 (stereo not shown) is ____.
Result: 120
